Here the recorded half-life is given for each entry.
# MEASUREMENT DESCRIPTION: Half life in mouse at 1 mg/kg, iv
# Assay type: ADME, organism-based
# APPLIED CONDITIONS: in vivo
# number only, unit h dropped from output

Study these solved cases before continuing.
COMPOUND | UNIT SYMBOL | half-life
Fc1ccc([C@H]2c3ccccc3CCN2C2=NC[C@@H](C3(F)CNC3)O2)cc1 | h | 2.2
Fc1ccc([C@H]2c3ccccc3CCN2C2=N[C@H](C3(F)CNC3)CO2)cc1 | h | 7.4
Fc1ccc([C@H]2c3ccccc3CCN2C2=NC[C@@H](C3CN4CCC3CC4)O2)cc1 (stereo not given in full) | h | 4.17
OCCN1CC[C@@]2(CN=C(N3CCc4ccccc4[C@@H]3c3ccc(F)cc3)O2)C1 | h | 2.1

As a next step, examine the compound that follows.
Requested field: half-life. Item: Fc1ccc([C@H]2c3ccccc3CCN2C2=NC[C@@]3(CCNC3)O2)cc1
15.6

----------
# MEASUREMENT DESCRIPTION: Volume of distribution at steady state in mouse at 10 mg/kg, po or 1 mg/kg, iv
# Type: ADME, organism-based
# APPLIED CONDITIONS: in vivo
Entries and their Vdss values follow.

Look over these answered cases.
MOLECULE | Vdss
Fc1ccc([C@H]2c3ccccc3CCN2C2=N[C@H](C3(F)CNC3)CO2)cc1 | 15.2 L/kg
Fc1ccc([C@H]2c3ccccc3CCN2C2=NC[C@@]3(CCNC3)O2)cc1 | 57.2 L/kg
Fc1ccc([C@H]2c3ccccc3CCN2C2=NC[C@@H](C3(F)CNC3)O2)cc1 | 12.2 L/kg
OCCN1CC[C@@]2(CN=C(N3CCc4ccccc4[C@@H]3c3ccc(F)cc3)O2)C1 | 18.5 L/kg

Could you now look at the following molecule, please?
Entry Fc1ccc([C@H]2c3ccccc3CCN2C2=NC[C@@H](C3CN4CCC3CC4)O2)cc1 (stereo not given in full) : reported Vdss = ?
38.8 L/kg

----------
# MEASUREMENT DESCRIPTION: Bioavailability in mouse at 10 mg/kg, po or 1 mg/kg, iv
# Format: ADME, organism-based
# APPLIED CONDITIONS: in vivo
RECORDED METRIC: bioavailability (%)
Kindly answer with a numeric value in %, unit omitted.

Take a look at these entries with their results.
COMPOUND | RECORDED METRIC | MEASUREMENT
OCCN1CC[C@@]2(CN=C(N3CCc4ccccc4[C@@H]3c3ccc(F)cc3)O2)C1 | bioavailability | 6.1
Fc1ccc([C@H]2c3ccccc3CCN2C2=NC[C@@]3(CCNC3)O2)cc1 | bioavailability | 74
Fc1ccc([C@H]2c3ccccc3CCN2C2=NC[C@@H](C3(F)CNC3)O2)cc1 | bioavailability | 38
Fc1ccc([C@H]2c3ccccc3CCN2C2=N[C@H](C3(F)CNC3)CO2)cc1 | bioavailability | 99

For the compound Fc1ccc([C@H]2c3ccccc3CCN2C2=NC[C@@H](C3CN4CCC3CC4)O2)cc1 (stereo not given in full) , what bioavailability is on record?
25

----------
# MEASUREMENT DESCRIPTION: Clearance in mouse at 10 mg/kg, po or 1 mg/kg, iv
# Assay type: ADME, organism-based
# APPLIED CONDITIONS: in vivo
Respond with y for CL values of 50 mL/min/kg and above, n for values below.

COMPOUND | LABEL VALUE
OCCN1CC[C@@]2(CN=C(N3CCc4ccccc4[C@@H]3c3ccc(F)cc3)O2)C1 | y
Fc1ccc([C@H]2c3ccccc3CCN2C2=NC[C@@H](C3(F)CNC3)O2)cc1 | y
Fc1ccc([C@H]2c3ccccc3CCN2C2=NC[C@@H](C3CN4CCC3CC4)O2)cc1 (stereo not given in full) | y

Consider the additional compound presented here.
Exam item: decide whether the reported CL for Fc1ccc([C@H]2c3ccccc3CCN2C2=N[C@H](C3(F)CNC3)CO2)cc1 is at least 50 mL/min/kg.
n

----------
Recorded EC50, one value per entry.
# MEASUREMENT DESCRIPTION: Induction of progranulin secretion in mouse BV-2 cells
# Format: functional, cell-based
The reply should be a number in nM, with the unit left off.

Record excerpt, results attached:
COMPOUND | UNIT SYMBOL | MEASUREMENT
N[C@@H]1CC[C@@]2(CN=C(N3CCc4ccccc4[C@@H]3c3ccc(F)cc3)O2)C1 | nM | 119
Fc1ccc([C@H]2c3ccccc3CCN2C2=NC[C@]3(CCNC3)O2)cc1 | nM | 21
Fc1ccc([C@H]2c3ccccc3CCN2C2=NC[C@H]([C@@H]3CCNC3)O2)cc1 | nM | 208
Fc1ccc([C@H]2c3ccccc3CCN2C2=NC[C@@]3(CCNC3)O2)cc1 | nM | 38

Could you share which EC50 value was measured for N[C@H]1C[C@@]2(COC(N3CCc4ccccc4[C@@H]3c3ccc(F)cc3)=N2)C1 ?
639

Look at this compound and give its reported EC50. Fc1ccc([C@H]2c3ccccc3CCN2C2=NC[C@H]([C@H]3CCNC3)O2)cc1
85

Query: EC50; subject: Fc1ccc([C@H]2c3ccccc3CCN2C2=N[C@H](C3(F)CNC3)CO2)cc1
83

Given the entry Fc1ccc([C@H]2c3ccccc3CCN2C2=NC[C@@H](C3CN4CCC3(F)CC4)O2)cc1 (some centres undefined) , report its measured EC50.
382

Bench note: what EC50 did Fc1ccc([C@H]2c3ccccc3CCN2C2=NC[C@@H](C3CNC3)O2)cc1 show?
97

----------
Parameter half-life: see the listing below.
# MEASUREMENT DESCRIPTION: Half life in mouse at 10 mg/kg, po
# Assay type: ADME, organism-based
# APPLIED CONDITIONS: in vivo
Quick note: give the figure in min, leave out the unit.

These recorded examples may help you get a feel for the data.
COMPOUND | UNIT SYMBOL | half-life
Fc1ccc([C@H]2c3ccccc3CCN2C2=N[C@H](C3(F)CNC3)CO2)cc1 | min | 288
Fc1ccc([C@H]2c3ccccc3CCN2C2=NC[C@@H](C3CN4CCC3CC4)O2)cc1 (stereo not given in full) | min | 684

Which half-life is reported for this compound? Fc1ccc([C@H]2c3ccccc3CCN2C2=NC[C@@]3(CCNC3)O2)cc1
714

What does the data say about its half-life? Entry: OCCN1CC[C@@]2(CN=C(N3CCc4ccccc4[C@@H]3c3ccc(F)cc3)O2)C1
198

Need half-life of Fc1ccc([C@H]2c3ccccc3CCN2C2=NC[C@@H](C3(F)CNC3)O2)cc1 , thanks.
156

----------
# MEASUREMENT DESCRIPTION: Induction of progranulin secretion in mouse BV-2 cells
# Type: functional, cell-based
For each record, check the reported EC50: if it is below 200 nM write t, else write f.

// known answers, use as guide
COMPOUND | LABEL VALUE
Fc1ccc([C@H]2c3ccccc3CCN2C2=NC[C@@H]([C@@H]3CCNC3)O2)cc1 | t
N[C@H]1CC[C@]2(CN=C(N3CCc4ccccc4[C@@H]3c3ccc(F)cc3)O2)C1 | t
Fc1ccc([C@H]2c3ccccc3CCN2C2=N[C@H]3CNC[C@H]3O2)cc1 | f
Fc1ccc([C@H]2c3ccccc3CCN2C2=NC[C@H](C3CN4CCC3CC4)O2)cc1 (some centres not stated) | f

Would you kindly verify if EC50 of Fc1ccc([C@H]2c3ccccc3CCN2C2=NC[C@H](C3CN4CCC3(F)CC4)O2)cc1 (some centres not stated) is strictly less than 200 nM?
f

Hi there! Is EC50 for Fc1ccc([C@H]2c3ccccc3CCN2C2=NC[C@@]3(CCCNC3)O2)cc1 below 200 nM, do you know?
f

Item OCCCN1CC[C@@]2(CN=C(N3CCc4ccccc4[C@@H]3c3ccc(F)cc3)O2)C1 : EC50 beneath 200 nM, strictly?
t

----------
# MEASUREMENT DESCRIPTION: Efflux ratio of apparent permeability in MDCK-MDR1 cells
# Type: ADME, cell-based, Canis lupus familiaris
# APPLIED CONDITIONS: dog
RECORDED METRIC: efflux ratio

In the examples that follow, each entry is paired with its recorded efflux ratio.
COMPOUND | RECORDED METRIC | MEASUREMENT
Fc1ccc([C@H]2c3ccccc3CCN2C2=NC[C@@H]3CNCC[C@@H]3O2)cc1 | efflux ratio | 9.04
Fc1ccc([C@H]2c3ccccc3CCN2C2=N[C@H](C3(F)CNC3)CO2)cc1 | efflux ratio | 1.11
Fc1ccc([C@H]2c3ccccc3CCN2C2=NC[C@@H](C3(F)CNC3)O2)cc1 | efflux ratio | 1.07
Fc1ccc([C@H]2c3ccccc3CCN2C2=NC[C@@H](C3CN4CCC3CC4)O2)cc1 (stereo partly specified) | efflux ratio | 2.12
Fc1ccc([C@H]2c3ccccc3CCN2C2=NC[C@@]3(CCNC3)O2)cc1 | efflux ratio | 3.09

Recorded efflux ratio of OCCN1CC[C@@]2(CN=C(N3CCc4ccccc4[C@@H]3c3ccc(F)cc3)O2)C1 , please.
1.52

Every entry's value here was drawn from ChEMBL document CHEMBL5236587.
